- assay summary: in vitro
- cond: human, HepG2 cells
- Description: Cytotoxicity against human HepG2 cells assessed as cell viability at 1 uM by MTT assay relative to control
Exercise: state measured viability at 1 µM for each of the compounds provided.
Form entry: value (%) — number only.

## Input Name the reported viability at 1 µM value associated with the compound "Cn1c2nc3ccccc3c-2c(NCCCCCCNc2c3c(nc4ccccc24)CCCC3)c2ccccc21"
## Output 40.9

## Input Same again, this time with "Cn1c2nc3ccccc3c-2c(NCCCCCCCCNc2c3c(nc4ccccc24)CCCC3)c2ccccc21"
## Output 78.1

## Input Cool, now "Cn1c2nc3ccccc3c-2c(NCCCCNc2c3c(nc4ccccc24)CCCC3)c2ccccc21"
## Output 99.5

---

Assignment: determine reported IC50 for the given molecules.
- tested target: Cholinesterase (Homo sapiens, UniProt P06276)
- Sequence (P06276 whole entry): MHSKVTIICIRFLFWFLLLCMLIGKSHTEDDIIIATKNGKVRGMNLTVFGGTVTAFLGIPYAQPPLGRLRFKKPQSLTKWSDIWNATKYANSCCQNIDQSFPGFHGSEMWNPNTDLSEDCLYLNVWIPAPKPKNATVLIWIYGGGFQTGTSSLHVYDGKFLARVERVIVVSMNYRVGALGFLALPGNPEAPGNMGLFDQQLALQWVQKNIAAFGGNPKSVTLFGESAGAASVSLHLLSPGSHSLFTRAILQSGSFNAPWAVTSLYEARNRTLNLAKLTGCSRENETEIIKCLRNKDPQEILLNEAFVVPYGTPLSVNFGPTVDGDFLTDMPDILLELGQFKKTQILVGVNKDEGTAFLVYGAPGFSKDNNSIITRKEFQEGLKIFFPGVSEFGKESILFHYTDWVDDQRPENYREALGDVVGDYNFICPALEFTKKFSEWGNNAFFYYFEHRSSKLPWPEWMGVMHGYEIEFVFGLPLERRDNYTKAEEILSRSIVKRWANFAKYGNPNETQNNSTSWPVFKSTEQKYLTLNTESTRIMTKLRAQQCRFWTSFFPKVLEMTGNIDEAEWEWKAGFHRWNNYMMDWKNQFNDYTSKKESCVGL
- assay summary: Inhibition of human serum BuChE using butyrylthiocholine iodide as substrate preincubated for 20 mins followed by substrate addition and measured for 5 mins by Ellman's assay
The response must be a number in nM with no trailing unit.

## Input I'd like to know its IC50. The molecule in question is "Cn1c2nc3ccccc3c-2c(NCCCCNc2c3c(nc4ccccc24)CCCC3)c2ccccc21"
## Output 21.8

## Input Another molecule to check: "Cn1c2nc3ccccc3c-2c(NCCCCCCNc2c3c(nc4ccccc24)CCCC3)c2ccccc21"
## Output 9

## Input // query: "Cn1c2nc3ccccc3c-2c(NCCCCCCCCNc2c3c(nc4ccccc24)CCCC3)c2ccccc21"
## Output 2.29

---

- tested target: Cholinesterase (Homo sapiens)
- assay summary: Inhibition of recombinant human BuChE using butyrylthiocholine as substrate preincubated for 30 mins followed by substrate addition and measured for 20 mins by Ellman's assay
experimental readout: pIC50
Schema: pIC50 number; meaning minus log10 of the concentration expressed in molar units.

## Input Quick one: pIC50 for "Nc1c2c(nc3cc(Cl)ccc13)C[C@H]1C=C(CCCCn3cc(CO)nn3)C[C@H]2C1" ?
## Output 6.68

---

- tested target: UniProt:P22303
- Sequence (P22303 whole entry): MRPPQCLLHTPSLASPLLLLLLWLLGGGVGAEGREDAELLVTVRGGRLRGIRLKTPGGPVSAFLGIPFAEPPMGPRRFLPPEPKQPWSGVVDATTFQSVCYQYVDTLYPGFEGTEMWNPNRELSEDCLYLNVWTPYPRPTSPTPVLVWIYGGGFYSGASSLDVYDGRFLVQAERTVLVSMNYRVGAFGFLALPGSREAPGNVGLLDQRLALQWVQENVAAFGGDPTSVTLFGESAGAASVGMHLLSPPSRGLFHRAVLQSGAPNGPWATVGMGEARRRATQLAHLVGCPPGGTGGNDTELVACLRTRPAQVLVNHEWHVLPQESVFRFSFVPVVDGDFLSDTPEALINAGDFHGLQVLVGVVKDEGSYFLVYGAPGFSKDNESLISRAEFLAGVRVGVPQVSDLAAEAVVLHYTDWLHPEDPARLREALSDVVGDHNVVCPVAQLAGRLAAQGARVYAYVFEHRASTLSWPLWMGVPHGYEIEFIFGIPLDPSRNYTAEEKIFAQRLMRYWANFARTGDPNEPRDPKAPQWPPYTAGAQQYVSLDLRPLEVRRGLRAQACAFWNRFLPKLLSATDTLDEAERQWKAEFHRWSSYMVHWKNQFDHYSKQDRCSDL
- assay summary: Inhibition of recombinant human AChE using acetylthiocholine iodide as substrate preincubated for 30 mins followed by substrate addition and measured for 20 mins by Ellman's assay
experimental readout: IC50 (nM)
Respond numerically; units are nM and should not be typed.

## Input What value of IC50 has been reported for the following compound? "Nc1c2c(nc3cc(Cl)ccc13)C[C@H]1C=C(CCCCn3cc(CO)nn3)C[C@H]2C1"
## Output 0.43

---

I'd be grateful if you could share measured viability at 10 µM for these entries.
- assay summary: in vitro
- cond: human, HepG2 cells
- Description: Cytotoxicity against human HepG2 cells assessed as cell viability at 10 uM by MTT assay relative to control

## Input Entry under review: "Cn1c2nc3ccccc3c-2c(NCCCCNc2c3c(nc4ccccc24)CCCC3)c2ccccc21" . Reported viability at 10 µM?
## Output 37.2%

## Input Try "Cn1c2nc3ccccc3c-2c(NCCCCCCCCNc2c3c(nc4ccccc24)CCCC3)c2ccccc21" next.
## Output 41.4%

## Input Try "Cn1c2nc3ccccc3c-2c(NCCCCCCNc2c3c(nc4ccccc24)CCCC3)c2ccccc21" next.
## Output 34.9%
